system: MDM2 (Homo sapiens)
Construct: made in house
Sequence (Q00987 25-109): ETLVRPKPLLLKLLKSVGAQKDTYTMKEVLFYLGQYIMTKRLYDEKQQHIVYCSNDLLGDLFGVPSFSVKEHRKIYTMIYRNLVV
assay_method_text: Naive Library Presenter Screening (phage, NGS), MDM2
Type: binding
test_context: MDM2 clusters (C82, C85); target concentration 1000 nM, second column
Numbered stars: 1 amine (or outer) side, 2 acyl side, 3 side chain; on linkers, the order of the positions; unused ones are H or OH. Bridge positions count the residues as written; N and C are the ends. Ends that are not written are not given here. Phenylene(1,4-NHCOCH2)2 = O=C(C[*:1])Nc1ccc(NC(=O)C[*:2])cc1
measure_name: interaction data at Target Concentration 1000

| sequence_entry | system | reported |
| --- | --- | --- |
| DPAAQECFRAAWRCMQD (linker 7-14 via Phenylene(1,4-NHCOCH2)2 (inferred)) | MDM2 (Homo sapiens) | 29 |
| DPATESCEDAAFWCHWI (DPATESCEDAAFWCHWI-NH2; linker 7-14 via Phenylene(1,4-NHCOCH2)2 (inferred)) | MDM2 (Homo sapiens) | 70 |
| DPAVTECFQAAWRCMVM (linker 7-14 via Phenylene(1,4-NHCOCH2)2 (inferred); not fully specified (C-terminus)) | MDM2 (Homo sapiens) | 268 |
| DPAINTCQDAAFWCYWS (linker 7-14 via Phenylene(1,4-NHCOCH2)2 (inferred)) | MDM2 (Homo sapiens) | 315 |
| DPALMQCTEAAFWCYWE (linker 7-14 via Phenylene(1,4-NHCOCH2)2 (inferred); not fully specified (C-terminus)) | MDM2 (Homo sapiens) | 32 |
| DPAHRQCFTAAWRCMMT (linker 7-14 via Phenylene(1,4-NHCOCH2)2 (inferred)) | MDM2 (Homo sapiens) | 149 |
| DPAETDCSQAAFWCYWQ (linker 7-14 via Phenylene(1,4-NHCOCH2)2 (inferred)) | MDM2 (Homo sapiens) | 188 |

====

system: beta-catenin (Homo sapiens, UniProt P35222)
Construct: made in house; host or cells: E. coli BL21 (DE3) pLysS
Sequence (P35222 134-665): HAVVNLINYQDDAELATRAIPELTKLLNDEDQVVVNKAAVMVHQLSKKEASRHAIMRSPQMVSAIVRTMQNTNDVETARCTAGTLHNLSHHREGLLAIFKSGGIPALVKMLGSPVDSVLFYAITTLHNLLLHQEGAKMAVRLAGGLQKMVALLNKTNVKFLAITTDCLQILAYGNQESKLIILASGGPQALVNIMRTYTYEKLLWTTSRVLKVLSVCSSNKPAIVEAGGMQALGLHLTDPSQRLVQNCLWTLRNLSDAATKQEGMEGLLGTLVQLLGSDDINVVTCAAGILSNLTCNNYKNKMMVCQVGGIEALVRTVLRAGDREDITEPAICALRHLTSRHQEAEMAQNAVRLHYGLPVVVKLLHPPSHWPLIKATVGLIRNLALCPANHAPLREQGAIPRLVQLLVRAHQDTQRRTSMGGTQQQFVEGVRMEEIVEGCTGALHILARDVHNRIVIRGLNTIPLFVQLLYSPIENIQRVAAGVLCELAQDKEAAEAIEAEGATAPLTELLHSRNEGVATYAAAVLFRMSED
assay_method_text: Phage Library Screening with NGS, beta-catenin
Assay type: binding
test_context: BLANK, second column
measure_name: Target Concentration BLANK (phage screen NGS readout)

| sequence_entry | reported |
| --- | --- |
| DPAHWHCEHAALLCASV | 0 |
| DPAWSDCIWAAEHCQLI | 1 |
| DPAENTCSWAAEHCALV | 0 |
| DPAIIHCYQAAFQCQYM | 0 |
| DPADTECILAAHFCHYF | 2 |
| DPAEADCMMAAHICSNI | 0 |
| DPAESDCILAAYICYVE | 2 |
| DPAEFYCEMAAVHCELL | 0 |
| DPAIMACYEAAYLCDYI | 0 |
